system: U-251; test: Cytotoxicity against human U-251 cells by MTT assay; format: functional, cell-based
pIC50: −log10 of the molar value.
Decide by pIC50: equal to or exceeding 5 means satisfied, less means not satisfied.

• C=C(CC[C@@H](C)[C@H]1CC[C@H]2C3=C(C(=O)C[C@]12C)[C@@]1(C)CCC(=O)[C@@H](C)[C@@H]1C[C@H]3OC(C)=O)[C@H](C)C(=O)Nc1ncc2ccccc2n1 = satisfied
• C=C(CC[C@@H](C)[C@H]1CC[C@H]2C3=C(C(=O)C[C@]12C)[C@@]1(C)CCC(=O)[C@@H](C)[C@@H]1C[C@H]3OC(C)=O)[C@H](C)C(=O)Nc1ccc2ccccc2n1 = not satisfied
• C=C(CC[C@@H](C)[C@H]1CC[C@H]2C3=C(C(=O)C[C@]12C)[C@@]1(C)CCC(=O)[C@@H](C)[C@@H]1C[C@H]3OC(C)=O)[C@H](C)C(=O)/N=c1/cc(CCc2ccccc2)[nH][nH]1 = not satisfied
• C=C(CC[C@@H](C)[C@H]1CC[C@H]2C3=C(C(=O)C[C@]12C)[C@@]1(C)CCC(=O)[C@@H](C)[C@@H]1C[C@H]3OC(C)=O)[C@H](C)C(=O)Nc1[nH]cnc1C(N)=O = not satisfied
• C=C(CC[C@@H](C)[C@H]1CC[C@H]2C3=C(C(=O)C[C@]12C)[C@@]1(C)CCC(=O)[C@@H](C)[C@@H]1C[C@H]3OC(C)=O)[C@H](C)C(=O)Nc1cccc2cccnc12 = not satisfied
• C=C(CC[C@@H](C)[C@H]1CC[C@H]2C3=C(C(=O)C[C@]12C)[C@@]1(C)CC/C(=N\O)[C@@H](C)[C@@H]1C/C3=N/O)[C@H](C)C(=O)OC = satisfied
• C=C(CC[C@@H](C)[C@H]1CC[C@H]2C3=C(C(=O)C[C@]12C)[C@@]1(C)CCC(=O)[C@@H](C)[C@@H]1C[C@H]3OC(C)=O)[C@H](C)C(=O)Nc1ccccc1N = not satisfied
• C=C(CC[C@@H](C)[C@H]1CC[C@H]2C3=C(C(=O)C[C@]12C)[C@@]1(C)CCC(=O)[C@@H](C)[C@@H]1C[C@H]3OC(C)=O)[C@H](C)C(=O)Nc1nc[nH]n1 = not satisfied
• C=C(CC[C@@H](C)[C@H]1CC[C@H]2C3=C(C(=O)C[C@]12C)[C@@]1(C)CCC(=O)[C@@H](C)[C@@H]1C[C@H]3OC(C)=O)[C@H](C)C(=O)Nn1cnnc1 = not satisfied

====

tested on: SW480; assay: Cytotoxicity against human SW480 cells by MTT assay; assay type: functional, cell-based
READOUT NAME: IC50

- C=C(CC[C@@H](C)[C@H]1CC[C@H]2C3=C(C(=O)C[C@]12C)[C@@]1(C)CCC(=O)[C@@H](C)[C@@H]1C[C@H]3OC(C)=O)[C@H](C)C(=O)Nc1ccc2[nH]ccc2c1: > 100 µM
- C=C(CC[C@@H](C)[C@H]1CC[C@H]2C3=C(C(=O)C[C@]12C)[C@@]1(C)CCC(=O)[C@@H](C)[C@@H]1C[C@H]3OC(C)=O)[C@H](C)C(=O)Nc1[nH]cnc1C(N)=O: 17.9 µM
- C=C(CC[C@@H](C)[C@H]1CC[C@H]2C3=C(C(=O)C[C@]12C)[C@@]1(C)CC/C(=N\O)[C@@H](C)[C@@H]1C/C3=N/O)[C@H](C)C(=O)OC: 2.2 µM
- C=C(CC[C@@H](C)[C@H]1CC[C@H]2C3=C(C(=O)C[C@]12C)[C@@]1(C)CCC(=O)[C@@H](C)[C@@H]1C[C@H]3OC(C)=O)[C@H](C)C(=O)Nc1cccc2cccnc12: > 100 µM
- C=C(CC[C@@H](C)[C@H]1CC[C@H]2C3=C(C(=O)C[C@]12C)[C@@]1(C)CCC(=O)[C@@H](C)[C@@H]1C[C@H]3OC(C)=O)[C@H](C)C(=O)Nn1cnnc1: > 100 µM
- C=C(CC[C@@H](C)[C@H]1CC[C@H]2C3=C(C(=O)C[C@]12C)[C@@]1(C)CCC(=O)[C@@H](C)[C@@H]1C[C@H]3OC(C)=O)[C@H](C)C(=O)Nc1nc[nH]n1: > 100 µM
- C=C(CC[C@@H](C)[C@H]1CC[C@H]2C3=C(C(=O)C[C@]12C)[C@@]1(C)CCC(=O)[C@@H](C)[C@@H]1C[C@H]3OC(C)=O)[C@H](C)C(=O)Nc1ncc2ccccc2n1: 40.8 µM
- C=C(CC[C@@H](C)[C@H]1CC[C@H]2C3=C(C(=O)C[C@]12C)[C@@]1(C)CCC(=O)[C@@H](C)[C@@H]1C[C@H]3OC(C)=O)[C@H](C)C(=O)Nc1ccc2ccccc2n1: > 100 µM
- C=C(CC[C@@H](C)[C@H]1CC[C@H]2C3=C(C(=O)C[C@]12C)[C@@]1(C)CCC(=O)[C@@H](C)[C@@H]1C[C@H]3OC(C)=O)[C@H](C)C(=O)/N=c1/cc(CCc2ccccc2)[nH][nH]1: > 100 µM
- C=C(CC[C@@H](C)[C@H]1CC[C@H]2C3=C(C(=O)C[C@]12C)[C@@]1(C)CCC(=O)[C@@H](C)[C@@H]1C[C@H]3OC(C)=O)[C@H](C)C(=O)Nc1ccccc1N: > 100 µM
